# Tested on: MDA-MB-468 breast
# method.description: NCI tumour cell line growth inhibition, 48 h
Classify as follows. Reported TGI greater than or equal to 4 µM: T. Reported TGI below: F.

The examples below pair each entry with its known result.
compound	target	category.label
CN1N=C(N)c2cn(C3OC(COP(=O)(O)O)C(O)C3O)c3ncnc1c23 (stereo not drawn)	MDA-MB-468 breast	F
COc1ccc2[nH]c(=O)c(CSc3ccccc3Nc3nccc(-c4ccc(C(F)(F)F)cc4)n3)cc2c1	MDA-MB-468 breast	T
CS(=O)(=O)CCN(CC#N)Cc1ccc(-c2ccc3ncnc(Nc4ccc(OCc5cccc(F)c5)c(Cl)c4)c3c2)o1	MDA-MB-468 breast	F
O=C1NC(=NCc2ccccc2Br)S/C1=C\c1ccc2ncccc2c1	MDA-MB-468 breast	T
C#C[C@]1(O)CC[C@H]2[C@@H]3CC=C4c5sc(Nc6ccc(OC)nc6)nc5CC[C@]4(C)[C@H]3CC[C@@]21C	MDA-MB-468 breast	F

Answer whether TGI of COc1ccc(C2C(C#N)=C(N)Oc3c2sc2c(F)cccc32)cc1 (stereo not drawn) is greater than or equal to 4 µM.
T

# bool: TGI of O=C1CCC(N2Cc3c(C#CCCCNC(=O)c4ccc(NC(=O)[C@@H]5NC6(CCCCC6)[C@@]6(C(=O)Nc7cc(Cl)ccc76)[C@H]5c5cccc(Cl)c5F)cc4)cccc3C2=O)C(=O)N1 (stereo partly drawn) >= 4 µM
T

TGI >= 4 µM for O=C(OCc1nc2nc(Cl)nc(N3CCOCC3)c2[nH]1)n1ccnc1 ?
F
